Let's look at some molecules and their measured pEC50.
Target: Cannabinoid receptor 1 (Homo sapiens, UniProt P21554)
Sequence (P21554 whole entry): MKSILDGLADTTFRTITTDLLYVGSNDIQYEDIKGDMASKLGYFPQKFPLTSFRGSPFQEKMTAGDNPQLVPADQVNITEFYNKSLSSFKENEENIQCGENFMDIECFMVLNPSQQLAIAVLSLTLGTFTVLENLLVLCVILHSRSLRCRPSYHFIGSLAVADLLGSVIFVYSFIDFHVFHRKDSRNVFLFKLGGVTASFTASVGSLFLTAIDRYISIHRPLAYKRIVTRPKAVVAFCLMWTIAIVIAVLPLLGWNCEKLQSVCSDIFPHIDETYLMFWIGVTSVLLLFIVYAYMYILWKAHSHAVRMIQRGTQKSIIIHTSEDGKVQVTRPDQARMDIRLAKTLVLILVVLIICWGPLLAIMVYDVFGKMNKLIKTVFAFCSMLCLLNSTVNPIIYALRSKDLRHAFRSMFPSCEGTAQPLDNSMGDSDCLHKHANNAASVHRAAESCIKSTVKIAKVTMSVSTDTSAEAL
Assay: Inverse agonist activity at human CB1 receptor expressed in Sf9 cells coexpressing Galpha i2 assessed as Galpha GTPase activity using [gamma-33P]GTP by scintillation counting in presence of CP55940
The scale used: pEC50 is minus the common logarithm of the concentration in molar units.

Q: Param item = `CCOc1ccc(Cc2nc3cc(C(=O)NCCCN(C)CCCNC(=O)c4ccc5c(c4)nc(Cc4ccc(OCC)cc4)n5CCC(C)C)ccc3n2CCC(C)C)cc1` ; retrieve measured pEC50.
Ans: 4.76

Q: Would you kindly share the measured pEC50 for `CCOc1ccc(Cc2nc3cc(C(=O)N(CC)CC)ccc3n2CCCN(C)CCCn2c(Cc3ccc(OCC)cc3)nc3cc(C(=O)N(CC)CC)ccc32)cc1` ?
Ans: 4.46

Q: Given `CCOc1ccc(Cc2nc3cc(C(=O)N(CC)CC)ccc3n2CCCCCCCCCCN(C)C)cc1` , state its recorded pEC50.
Ans: 4.60

Q: // lookup pEC50 for `CCOc1ccc(Cc2nc3cc(C(=O)NCCCCCCCCCCN(C)C)ccc3n2CCC(C)C)cc1`
Ans: 4.62

Q: For `CCOc1ccc(Cc2nc3cc(C(=O)NCCCCCCCCCCN(C)CCCCCCCCCCNC(=O)c4ccc5c(c4)nc(Cc4ccc(OCC)cc4)n5CCC(C)C)ccc3n2CCC(C)C)cc1` , what is its reported pEC50?
Ans: 4.59

Q: Please give the measured pEC50 for this molecule: `CCOc1ccc(Cc2nc3cc(C(=O)N(CC)CC)ccc3n2CCCCCCCCCCN(C)CCCCCCCCCCn2c(Cc3ccc(OCC)cc3)nc3cc(C(=O)N(CC)CC)ccc32)cc1`
Ans: 5.20

---

Molecular target: Cannabinoid receptor 2 (Homo sapiens)
Assay: Antagonist activity at human CB2 receptor expressed in Sf9 cells coexpressing Galpha i2 assessed as Galpha GTPase activity using [gamma-33P]GTP at 100 uM by scintillation counting in presence of 30 nM CP55940
Assay type: functional
observation type: Emax
Please state the value followed by its unit.

CCOc1ccc(Cc2nc3cc(C(=O)NCCCCCCCCCCN(C)C)ccc3n2CCC(C)C)cc1 : 20%

Q: For the record `CCCCn1c(Cc2ccc(OCC)cc2)nc2cc(C(=O)N(CC)CC)ccc21` , what value of Emax is listed for Cannabinoid receptor 2 (Homo sapiens)?
Ans: 162%

Q: Query for Cannabinoid receptor 2 (Homo sapiens): what Emax does the record show for `CCOc1ccc(Cc2nc3cc(C(=O)N(CC)CC)ccc3n2CCC(C)C)cc1` ?
Ans: 167%

---

Biological target: Cannabinoid receptor 1 (Homo sapiens, UniProt P21554)
Assay: Agonist activity at human CB1 receptor expressed in Sf9 cells coexpressing Galpha i2 assessed as Galpha GTPase activity using [gamma-33P]GTP at 100 uM by scintillation counting
observation type: Emax (%)
Numbers only here, please. The scale is %.

CCOc1ccc(Cc2nc3cc(C(=O)NCCCCCCCCCCN(C)CCCCCCCCCCNC(=O)c4ccc5c(c4)nc(Cc4ccc(OCC)cc4)n5CCC(C)C)ccc3n2CCC(C)C)cc1 : -42
CCCCn1c(Cc2ccc(OCC)cc2)nc2cc(C(=O)N(CC)CC)ccc21 : 67
CCOc1ccc(Cc2nc3cc(C(=O)N(CC)CC)ccc3n2CCCN(C)C)cc1 : -3
CCOc1ccc(Cc2nc3cc(C(=O)NCCCCCCCCCCN(C)C)ccc3n2CCC(C)C)cc1 : -58
CCOc1ccc(Cc2nc3cc(C(=O)N(CC)CC)ccc3n2CCCCCCCCCCN(C)CCCCCCCCCCn2c(Cc3ccc(OCC)cc3)nc3cc(C(=O)N(CC)CC)ccc32)cc1 : -97
CCOc1ccc(Cc2nc3cc(C(=O)NCCCN(C)C)ccc3n2CCC(C)C)cc1 : -5
CCOc1ccc(Cc2nc3cc(C(=O)OC)ccc3n2CCC(C)C)cc1 : -3
CCOc1ccc(Cc2nc3cc(C(=O)N(CC)CC)ccc3n2CCCN(C)CCCn2c(Cc3ccc(OCC)cc3)nc3cc(C(=O)N(CC)CC)ccc32)cc1 : -43

Q: Give the measured Emax of `CCOc1ccc(Cc2nc3cc(C(=O)N(CC)CC)ccc3n2CCCCCCCCCCN(C)C)cc1` .
Ans: -55

Q: So what's the measured Emax for this one? `CCOc1ccc(Cc2nc3cc(C(=O)N(CC)CC)ccc3n2CCCCN(C)CCCCn2c(Cc3ccc(OCC)cc3)nc3cc(C(=O)N(CC)CC)ccc32)cc1`
Ans: -40

---

Target: Cannabinoid receptor 2 (Homo sapiens, UniProt P34972)
Sequence (P34972 whole entry): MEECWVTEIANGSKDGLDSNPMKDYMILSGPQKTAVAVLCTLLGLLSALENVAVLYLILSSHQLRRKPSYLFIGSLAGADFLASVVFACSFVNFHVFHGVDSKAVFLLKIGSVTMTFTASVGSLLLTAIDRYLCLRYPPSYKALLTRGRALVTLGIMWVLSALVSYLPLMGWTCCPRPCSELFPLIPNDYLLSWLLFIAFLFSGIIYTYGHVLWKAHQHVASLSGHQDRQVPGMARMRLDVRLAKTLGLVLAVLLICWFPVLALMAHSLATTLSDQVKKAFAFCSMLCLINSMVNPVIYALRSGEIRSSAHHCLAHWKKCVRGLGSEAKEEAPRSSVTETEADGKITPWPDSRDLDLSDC
Test: Agonist activity at human CB2 receptor expressed in Sf9 cells coexpressing Galpha i2 assessed as Galpha GTPase activity using [gamma-33P]GTP at 100 uM by scintillation counting
observation type: Emax (%)
# unit: % | format: bare number

These solved cases illustrate the format of a correct answer.
CCCCn1c(Cc2ccc(OCC)cc2)nc2cc(C(=O)N(CC)CC)ccc21 : 198
CCOc1ccc(Cc2nc3cc(C(=O)N(CC)CC)ccc3n2CCCN(C)CCCn2c(Cc3ccc(OCC)cc3)nc3cc(C(=O)N(CC)CC)ccc32)cc1 : -2
CCOc1ccc(Cc2nc3cc(C(=O)N(CC)CC)ccc3n2CCCCN(C)CCCCn2c(Cc3ccc(OCC)cc3)nc3cc(C(=O)N(CC)CC)ccc32)cc1 : 5
CCOc1ccc(Cc2nc3cc(C(=O)NCCCCCCCCCCN(C)CCCCCCCCCCNC(=O)c4ccc5c(c4)nc(Cc4ccc(OCC)cc4)n5CCC(C)C)ccc3n2CCC(C)C)cc1 : 3
CCOc1ccc(Cc2nc3cc(C(=O)N(CC)CC)ccc3n2CCCCCCCCCCN(C)C)cc1 : 1
CCOc1ccc(Cc2nc3cc(C(=O)N(CC)CC)ccc3n2CCC(C)C)cc1 : 192

Q: Please give the measured Emax for this molecule: `COc1ccc(C(=O)c2c(C)n(CCN3CCOCC3)c3cc(I)ccc23)cc1`
Ans: 5

Q: # lookup: Emax of `CCOc1ccc(Cc2nc3cc(C(=O)NCCCCCCCCCCN(C)C)ccc3n2CCC(C)C)cc1`
Ans: 0

---

The compounds listed here are annotated with their Emax.
Target: Cannabinoid receptor 2 (Homo sapiens, UniProt P34972)
Test: Agonist activity at human CB2 receptor expressed in Sf9 cells coexpressing Galpha i2 assessed as Galpha GTPase activity using [gamma-33P]GTP at 100 uM by scintillation counting
Numbers only here, please. The scale is %.

Completed entries (count: 2):
CCOc1ccc(Cc2nc3cc(C(=O)OC)ccc3n2CCC(C)C)cc1 : 37
CCOc1ccc(Cc2nc3cc(C(=O)N(CC)CC)ccc3n2CCCN(C)C)cc1 : 106

Please turn your attention to the following entry.
Q: So what's the measured Emax for this one? `CCOc1ccc(Cc2nc3cc(C(=O)NCCCN(C)C)ccc3n2CCC(C)C)cc1`
Ans: 11
